- test.name: Phase 1/2 study: plasma miglustat pharmacokinetics
- Format: in vivo, human
- test.conditions: both sexes, human, plasma, po, 260 mg, plasma miglustat; High (about 260 mg oral) MD; geometric mean
readout.name: AUC(0-inf) (ng·h/mL)
API: value field is a number in ng·h/mL; no unit string.

GET /values?readout=AUC(0-inf)&item= "CCCCN1C[C@H](O)[C@@H](O)[C@H](O)[C@H]1CO"
26000

* * *

- test.name: Phase 1/2 study: plasma miglustat pharmacokinetics
- Format: in vivo, human
- test.conditions: both sexes, human, plasma, po, 260 mg, plasma miglustat; High (about 260 mg oral) SD; arithmetic mean
- Method: Mean total GAA protein and miglustat PK results from the first 8 Cohort 1 patients through Visit 9 and the first 2 Cohort 3 patients were assessed.
readout.name: half-life

GET /values?readout=half-life&item= CCCCN1C[C@H](O)[C@@H](O)[C@H](O)[C@H]1CO [miglustat]
5.7 h
